Km listing for selected compounds.
experiment: Drug metabolism in human liver microsomes by multiple depletion curves method; conditions: liver microsomes
observation-type: Km (µM)

compound | measured
COc1ccc([C@@H]2Sc3ccccc3N(CCN(C)C)C(=O)[C@@H]2OC(C)=O)cc1 [DILTIAZEM] | 10
CCOc1ccc(NC(C)=O)cc1 [PHENACETIN] | 22.6
COc1ccc2c(c1)[C@]13CCCC[C@@H]1[C@H](C2)N(C)CC3 [DEXTROMETHORPHAN] | 7.16

----------
molecular target: Cytochrome P450 2D6 (Homo sapiens); assay: Drug metabolism in assessed as human CYP2D6-mediated intrinsic clearance per mg protein; format: ADME; settings: recombinant enzyme
Sequence (P10635 whole entry): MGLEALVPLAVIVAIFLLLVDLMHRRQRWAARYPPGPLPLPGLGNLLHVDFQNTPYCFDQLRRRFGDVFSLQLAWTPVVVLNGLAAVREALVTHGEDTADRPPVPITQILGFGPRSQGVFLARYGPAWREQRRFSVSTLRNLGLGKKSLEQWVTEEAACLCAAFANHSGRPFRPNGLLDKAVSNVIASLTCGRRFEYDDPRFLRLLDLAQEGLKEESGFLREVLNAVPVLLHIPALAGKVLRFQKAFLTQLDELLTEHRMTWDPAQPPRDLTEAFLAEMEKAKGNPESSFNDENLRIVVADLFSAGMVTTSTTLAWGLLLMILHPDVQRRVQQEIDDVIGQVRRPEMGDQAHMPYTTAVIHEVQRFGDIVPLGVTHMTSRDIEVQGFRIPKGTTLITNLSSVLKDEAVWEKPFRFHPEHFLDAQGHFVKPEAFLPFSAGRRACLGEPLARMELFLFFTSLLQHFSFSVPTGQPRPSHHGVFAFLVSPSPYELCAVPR

molecule | clearance / µL/min/mg
CCc1cccc2cc(C(O)CNC(C)(C)C)oc12 (stereo unspecified) | 3

----------
Km listing for selected molecules.
assay: Drug metabolism in human liver microsomes by multiple depletion curves method; conditions: microsomes

molecule | Km, µM
CCN(CC)Cc1cc(Nc2ccnc3cc(Cl)ccc23)ccc1O [AMODIAQUINE] | 3.33
O=C(O)Cc1ccccc1Nc1c(Cl)cccc1Cl [DICLOFENAC] | 11.6
CCc1cccc2cc(C(O)CNC(C)(C)C)oc12 (centres undefined) [BUFURALOL] | 11.7
Cc1ncc2n1-c1ccc(Cl)cc1C(c1ccccc1F)=NC2 [MIDAZOLAM] | 1.26

----------
CLH listing for selected molecules.
test system: Liver microsome; test: Drug metabolism in human liver microsomes assessed as intrinsic clearance per mg protein by multiple depletion curves method

molecule | measured-target | units-of-measure | CLH
CCOc1ccc(NC(C)=O)cc1 | Liver microsome | µL/min/g | 39.5
Cc1ncc2n1-c1ccc(Cl)cc1C(c1ccccc1F)=NC2 | Liver microsome | µL/min/g | 717
CCN(CC)Cc1cc(Nc2ccnc3cc(Cl)ccc23)ccc1O | Liver microsome | µL/min/g | 829
COc1ccc([C@@H]2Sc3ccccc3N(CCN(C)C)C(=O)[C@@H]2OC(C)=O)cc1 | Liver microsome | µL/min/g | 47.6
COc1ccc2c(c1)[C@]13CCCC[C@@H]1[C@H](C2)N(C)CC3 | Liver microsome | µL/min/g | 84.1
CCc1cccc2cc(C(O)CNC(C)(C)C)oc12 (stereo unspecified) | Liver microsome | µL/min/g | 31

----------
tested on: CYP3A; experiment: Drug metabolism in assessed as human CYP3A-mediated metabolism; assay type: ADME; conditions: recombinant enzyme
observation-type: Km (µM)

structure-string | measured-target | observation-type | units-of-measure | measured
Cc1ncc2n1-c1ccc(Cl)cc1C(c1ccccc1F)=NC2 | CYP3A | Km | µM | 1.2

----------
tested on: Liver microsome; assay: Drug metabolism in human liver microsomes assessed as intrinsic clearance per mg protein by optimal design approach
observation-type: CLH (µL/min/g)

compound | measured-target | measured
CCc1cccc2cc(C(O)CNC(C)(C)C)oc12 (stereo unspecified) [BUFURALOL] | Liver microsome | 32.3
CCN(CC)Cc1cc(Nc2ccnc3cc(Cl)ccc23)ccc1O [AMODIAQUINE] | Liver microsome | 224
CCOc1ccc(NC(C)=O)cc1 [PHENACETIN] | Liver microsome | 50.4
COc1ccc([C@@H]2Sc3ccccc3N(CCN(C)C)C(=O)[C@@H]2OC(C)=O)cc1 [DILTIAZEM] | Liver microsome | 75.4
Cc1ncc2n1-c1ccc(Cl)cc1C(c1ccccc1F)=NC2 [MIDAZOLAM] | Liver microsome | 220
COc1ccc2c(c1)[C@]13CCCC[C@@H]1[C@H](C2)N(C)CC3 [DEXTROMETHORPHAN] | Liver microsome | 54.2

----------
test: Drug metabolism in human liver microsomes by optimal design approach; conditions: liver microsomes
observation-type: Km (µM)

structure-string | measured
COc1ccc2c(c1)[C@]13CCCC[C@@H]1[C@H](C2)N(C)CC3 | 6.32
COc1ccc([C@@H]2Sc3ccccc3N(CCN(C)C)C(=O)[C@@H]2OC(C)=O)cc1 | 9.8
CCOc1ccc(NC(C)=O)cc1 | 22.6

----------
assay: Drug metabolism in human liver microsomes by optimal design approach; settings: microsomes

molecule | Km
Cc1ncc2n1-c1ccc(Cl)cc1C(c1ccccc1F)=NC2 [MIDAZOLAM] | 3.04 µM
O=C(O)Cc1ccccc1Nc1c(Cl)cccc1Cl [DICLOFENAC] | 8.55 µM
CCN(CC)Cc1cc(Nc2ccnc3cc(Cl)ccc23)ccc1O [AMODIAQUINE] | 5.17 µM
CCc1cccc2cc(C(O)CNC(C)(C)C)oc12 (centres undefined) [BUFURALOL] | 12.8 µM
